- assay_target: IDH1 R132H (Homo sapiens, UniProt O75874, R132H)
- Sequence (O75874 whole entry R132H): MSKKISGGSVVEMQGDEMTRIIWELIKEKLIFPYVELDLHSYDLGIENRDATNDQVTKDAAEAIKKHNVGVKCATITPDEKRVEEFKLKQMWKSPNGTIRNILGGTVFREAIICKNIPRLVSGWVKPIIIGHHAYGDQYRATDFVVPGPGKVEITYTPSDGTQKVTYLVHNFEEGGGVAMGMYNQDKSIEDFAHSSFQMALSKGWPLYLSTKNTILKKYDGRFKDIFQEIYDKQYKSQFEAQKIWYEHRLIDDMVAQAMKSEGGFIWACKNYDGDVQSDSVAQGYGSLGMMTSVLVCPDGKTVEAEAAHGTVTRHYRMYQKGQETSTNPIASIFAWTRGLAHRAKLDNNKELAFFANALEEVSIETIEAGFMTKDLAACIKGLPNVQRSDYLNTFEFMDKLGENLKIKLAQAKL
- procedure_summary: Inhibition of IDH1 R132H in a biochemical assay (NADPH consumption, luminescence)
- assay_setup: 1.5 nM enzyme, 1 μM NADPH, 250 μM α-KG, 32° C., 30 minutes
// boundary case: IC50 equal to 60 nM maps to class 0; strictly smaller maps to class 1

compound: C[C@@H]1C[C@H](n2c(Nc3ccc(C(F)(F)F)cc3)nc3cc(CCC(=O)O)ccc32)CC(C)(C)C1 (racemic)
assay_target: IDH1 R132H (Homo sapiens, UniProt O75874, R132H)
assigned_label: class 1

compound: CC(C)c1ccc(Nc2nc3cc(CCC(=O)O)ccc3n2[C@H]2C[C@@H](C)CC(C)(C)C2)cc1 (racemic)
assay_target: IDH1 R132H (Homo sapiens, UniProt O75874, R132H)
assigned_label: class 1

compound: CC(C)Oc1ccc(Nc2nc3cc(CCC(=O)O)ccc3n2C2CCCC(C)(C)C2)cc1 (racemic)
assay_target: IDH1 R132H (Homo sapiens, UniProt O75874, R132H)
assigned_label: class 0

compound: CC(C)c1ccc(Nc2nc3cc(CCC(=O)O)ccc3n2C2CCCC(C)(C)C2)cc1 (racemic)
assay_target: IDH1 R132H (Homo sapiens, UniProt O75874, R132H)
assigned_label: class 1

compound: COC(=O)CCc1ccc2c(c1)nc(Nc1ccc(C(C)C)cc1)n2[C@H]1C[C@@H](C)CC(C)(C)C1 (racemic)
assay_target: IDH1 R132H (Homo sapiens, UniProt O75874, R132H)
assigned_label: class 0

compound: COC(=O)CCc1ccc2c(c1)nc(Nc1ccc(OC(F)(F)F)cc1)n2[C@H]1C[C@@H](C)CC(C)(C)C1 (racemic)
assay_target: IDH1 R132H (Homo sapiens, UniProt O75874, R132H)
assigned_label: class 0

----------
- assay_target: IDH1 R132H (Homo sapiens, UniProt O75874, R132H)
- procedure_summary: Cellular assay: 2-HG in medium of LN229 R132H cells overexpressing mutated IDH
- Type: cell-based
- assay_setup: 24 hours
- Procedure: Concentrations of (2R)-2-hydroxyglutarate (2HG) were determined in a medium of a cell line having an overexpession of the mutated isocitrate dehydrogenase protein. mIDH catalyses the NADPH-dependent reduction of alpha-ketoglutarate to 2-HG. […] 2-HG was measured using the method published by Balss et al. (Acta Neuropathol (2012) 124: 883-891). […] The conversion of resazurin to resorufin was determined by fluorescence spectroscopy at Ex 540 nm Em 600 nm. […]

compound: COC(=O)CCc1ccc2c(c1)nc(Nc1ccc(C(C)C)cc1)n2[C@H]1C[C@@H](C)CC(C)(C)C1 (racemic)
unit_annotation: nM
IC50: 90
--
compound: CC(C)Oc1ccc(Nc2nc3cc(CCC(=O)O)ccc3n2[C@H]2C[C@@H](C)CC(C)(C)C2)cc1 (racemic)
unit_annotation: nM
IC50: 400
--
compound: CC1(C)CCCC(n2c(Nc3ccc(OC(F)(F)F)cc3)nc3cc(CCC(=O)O)ccc32)C1 (racemic)
unit_annotation: nM
IC50: 850
--
compound: CC(C)c1ccc(Nc2nc3cc(CCC(=O)O)ccc3n2C2CCCC(C)(C)C2)cc1 (racemic)
unit_annotation: nM
IC50: 400
--
compound: CC(C)c1ccc(Nc2nc3cc(CCC(=O)O)ccc3n2[C@H]2C[C@@H](C)CC(C)(C)C2)cc1 (racemic)
unit_annotation: nM
IC50: 80
--
compound: COC(=O)CCc1ccc2c(c1)nc(Nc1ccc(OC(F)(F)F)cc1)n2[C@H]1C[C@@H](C)CC(C)(C)C1 (racemic)
unit_annotation: nM
IC50: 300
--
compound: CC(C)Oc1ccc(Nc2nc3cc(CCC(=O)O)ccc3n2C2CCCC(C)(C)C2)cc1 (racemic)
unit_annotation: nM
IC50: 850
--
compound: C[C@@H]1C[C@H](n2c(Nc3ccc(C(F)(F)F)cc3)nc3cc(CCC(=O)O)ccc32)CC(C)(C)C1 (racemic)
unit_annotation: nM
IC50: 70
